All figures here come from the supplement of paper PMC11865577.

Test system: TO-N3 (biotin conjugate)
Experiment: pull-down binding Z-score (relative to library population); higher = stronger binding
Details: RNA library: Library-2
readout type: pull-down binding Z-score
A bare number is all that is needed in reply.

Worked examples, 9 sequences total:
- residue sequence: "CGUGCAAGUUUAAGUUUUUGCACG [hsa-mir-4445]"
  pull-down binding Z-score: 0.282
- residue sequence: "CGUAUGUGUAUAUAAAUGUAUACG [hsa-mir-1277]"
  pull-down binding Z-score: -1.29
- residue sequence: "UCCACCCCCAGAGAAUCCCUAAACCGGGGGUGGA [hsa-mir-1289-1]"
  pull-down binding Z-score: -0.645
- residue sequence: "AUUUCUGUGUUCGUUAGGCAACAG [hsa-mir-221]"
  pull-down binding Z-score: 1.07
- residue sequence: "AUGUGUUGUGAUGGCACAGCGU [hsa-mir-592]"
  pull-down binding Z-score: -0.817
- residue sequence: "AGGCUCUGCAAGAUCAACCGAGCA [hsa-mir-330]"
  pull-down binding Z-score: 0.492
- residue sequence: "GGUUGUAUGGUACAAGUAACUUGUGGUACAACU"
  pull-down binding Z-score: -0.61
- residue sequence: "GUAGAUUGAAAGCCCUAAUUUUAC [hsa-mir-3941]"
  pull-down binding Z-score: -0.0427
- residue sequence: "AGGAGAAGGUGAGACCAAUGUCCUGGGUGCCACUCCU [hsa-mir-6124]"
  pull-down binding Z-score: -0.503

# evaluate next
Item UAACACCAGGAACAAAUACUUCUAACCAGGUUGCUGUUCUUUAUCAGGGUGUUA [SHAPE_invivo_SARS-CoV-2_Motif_440] has what recorded pull-down binding Z-score?
-0.633

* * *

Examples of sequences with documented pull-down binding Z-score follow.
Test system: TO-N3-2 (biotin conjugate)
Experiment: pull-down binding Z-score (relative to library population); higher = stronger binding
Conditions: RNA library: Library-2
A bare number is all that is needed in reply.

Worked examples, 6 sequences total:
- residue sequence: "GUUGGGCAUCCACAGUCUCCCACC [hsa-mir-1911]"
  pull-down binding Z-score: 0.612
- residue sequence: "CCCUGCCCAGUGCAGGAG [hsa-mir-6069]"
  pull-down binding Z-score: -0.914
- residue sequence: "UAAAGUACUUAAUGAGAAGUGCUCUGCCUAUACAGUUGAACUCGGUACAGAAGUAAAUGAGUUCGCCUGUGUUGUGGCAGAUGCUGUCAUAAAAACUUUG [DMSMaPseq_invitro_SARS-CoV-2_Motif_52]"
  pull-down binding Z-score: 0.722
- residue sequence: "GGCCAUUAGAGGCC [IAV_invivo_PB2_1_Motif_29+IAV_invivo_PB2_1_Motif_29]"
  pull-down binding Z-score: -1.06
- residue sequence: "AUUAGACAGAAAAAAGUUAGACACAAAAAAUUGUGUCUAAU [hsa-mir-4759]"
  pull-down binding Z-score: -0.525
- residue sequence: "UGGUUAGCUUUUUUUUUUUUUUGAGAUGGAGUCUGGCUC [hsa-mir-8086]"
  pull-down binding Z-score: -0.598

Item AGUAUGGCUACAUACU [DMSMaPseq_invitro_SARS-CoV-2_Motif_53] has what recorded pull-down binding Z-score?
-1.19

Now give it for AAAGCCAGGGACCCUGAGAGGCUUU [hsa-mir-6885] too.
1.24

Now give it for GGUGACAACAACC [IAV_invivo_M1_M2_7_Motif_11+IAV_invivo_M1_M2_7_Motif_11] too.
-0.457

* * *

Test system: TO-N3 (biotin conjugate)
Experiment: pull-down binding Z-score (relative to library population); higher = stronger binding
Details: RNA library: Library-2
readout type: pull-down binding Z-score
A bare number is all that is needed in reply.

Worked examples, 5 sequences total:
- residue sequence: "UUCUCCUUGGGAAAAACAGAGAA [hsa-mir-605]"
  measurement target: "TO-N3 (biotin conjugate)"
  pull-down binding Z-score: -0.65
- residue sequence: "AAACUUGUGCCCUUUUGGUGAAGUUUUUAACGCCACCAGAUUUGCAUCUGUUU [SHAPE_invivo_SARS-CoV-2_Motif_425]"
  measurement target: "TO-N3 (biotin conjugate)"
  pull-down binding Z-score: -1.3
- residue sequence: "AUUGGCUUGGAUUCUGCAAAGCCU [hsa-mir-7151]"
  measurement target: "TO-N3 (biotin conjugate)"
  pull-down binding Z-score: 0.194
- residue sequence: "CCCACCUCCAGCAUUGGG [hsa-mir-1267]"
  measurement target: "TO-N3 (biotin conjugate)"
  pull-down binding Z-score: -0.663
- residue sequence: "AACUGCUUUUGGCUUAGUUGCAGAGUGGUU"
  measurement target: "TO-N3 (biotin conjugate)"
  pull-down binding Z-score: -0.115

Item `ACAUGCCAAUUUAGAUUCUUGCAAAAGAGUCUUGAACGUGGUGUGU` has what recorded pull-down binding Z-score?
-1.48

Now give it for CCUCUCGGGAACUACAAGUCCCAGGGGG [hsa-mir-2861] too.
-0.794

* * *

Examples of sequences with documented pull-down binding Z-score follow.
System: TO-N3 (biotin conjugate)
Assay: pull-down binding Z-score (relative to library population); higher = stronger binding
Settings: RNA library: Library-2
A bare number is all that is needed in reply.

Worked examples, 3 sequences total:
- residue sequence: "GCCUUGAAGCCCCUUUUCUCUAUCUUUAUGCUUUAGUCUACUUCUUGCAGAGUAUAAACUUUGUAAGAAUAAUAAUGAGGC"
  pull-down binding Z-score: 0.232
- residue sequence: "GCAGGGACCCCUCCAAGUUGGGGACGGCAGC [hsa-mir-6858]"
  pull-down binding Z-score: 0.676
- residue sequence: "CAUUUCCUUCAUGAUUAGGAAUACUACUUUGAAAUG [hsa-mir-4712]"
  pull-down binding Z-score: -0.856

Item GCUGCACAAAAAGC [IAV_invivo_NP_5_Motif_13+IAV_invivo_NP_5_Motif_13] has what recorded pull-down binding Z-score?
-1.08

Now give it for GACUUGAGAUUAUAGUC [hsa-mir-3685] too.
-0.0763

Now give it for AAAGCCAGGGACCCUGAGAGGCUUU [hsa-mir-6885] too.
0.556

Now give it for UGAGCAUUUUUACUGAAUUGCCA [hsa-mir-6715a] too.
-0.738

Now give it for AUAUGUUUACACCACUAAUUCAACCUAUUGGUGCUUUGGACAUAU [DMSMaPseq_invitro_SARS-CoV-2_Motif_171] too.
-0.635

Now give it for UGCCUCUCGGGGU [hsa-mir-6073] too.
0.118

Now give it for GGGAGAGACGAACAGUCGAUUGCC [IAV_invivo_PB2_1_Motif_17+IAV_invivo_PB2_1_Motif_17] too.
0.0259

Now give it for UGUGCCUUGCCUUUCCUUUGGCACA [hsa-mir-4438] too.
-0.0545

Now give it for GCAGCAGGCACCUGCUUCC [hsa-mir-6868] too.
0.984

Now give it for UGUGGAAAGGGCUAUCAUCUUAUGUCCUUCCCUCA [DMSMaPseq_invitro_SARS-CoV-2_Motif_440] too.
-0.154

Now give it for `GGUUUUAUAGCUGGCUUGAUUGCCAUAGUAAUGGUGACAAUUAUGCUUUGCUGUAUGACC` too.
-0.717

Now give it for GCUGGGCUGAGCUAACCAGGGCUGGGCUGAGC [hsa-mir-4537] too.
0.532

Now give it for UGCACCACUCUCCCUGUGAUGAGGUGAA [hsa-mir-4786] too.
-0.255

* * *

Tested on: TO-3-N3 (biotin conjugate)
Assay: pull-down binding Z-score (relative to library population); higher = stronger binding
Conditions: RNA library: Library-2
pull-down binding Z-score below -0.5 gives no; pull-down binding Z-score at or above it gives yes.

Previously resolved entries follow.
- residue sequence: "UCUGAAGAAGUAGUGGAAAAUCCUACCAUACAGA [DMSMaPseq_invitro_SARS-CoV-2_Motif_122]"
  assigned category: "yes"
- residue sequence: "UCCCCUAGCGCGCCUUCUGGAGA [hsa-mir-3188]"
  assigned category: "yes"
- residue sequence: "UCUUGAAUUUUUGCCAGUUCAAGA [hsa-mir-5197]"
  assigned category: "no"

Is pull-down binding Z-score for UUGGUGACAGCAGCAGUAGAGUUGCCAG [hsa-mir-6501] at or above -0.5?
no

Now give it for CGAGCCGCUUCCUCACGGCUCG [hsa-mir-4665] too.
no

Now give it for GGAAUAGUGCUCCUGGUUGUUUC [hsa-mir-1180] too.
no

Now give it for UUGAACUUCAUUUCUCAUGCUCA [hsa-mir-6870] too.
yes

Now give it for `GACUUGCUUUAGCACUCAAUUUGCUUUUGCUUGUC` too.
yes

Now give it for GCCUGUGUAAAUGGU [IAV_invivo_NA_6_Motif_8+IAV_invivo_NA_6_Motif_8] too.
yes

Now give it for UUUCUGUUGUCUGAAAGCAGA [hsa-mir-515-1_515-2] too.
yes
